Test system: Danio rerio larvae (5 dpf)
Assay: difference in habituation to acoustic stimuli vs DMSO (percentage points); higher = more habituation than DMSO
Settings: 10 µM; exposure time 6 h
Counter-ions that a name gives are not always drawn.
# if value of difference in habituation to acoustic stimuli reaches -0.2, tag y; if it stays below, tag n

Some solved entries appear below for comparison.
O=c1[nH]cnc2c1ncn2[C@H]1CC[C@@H](CO)O1 [Didanosine]: n
CC(C)(C)NCC(O)COc1cccc2c1CCC(=O)N2 (configuration not stated) [Carteolol (hydrochloride)]: y
C[N+]1(C)CCC(OC(=O)C(O)(c2ccccc2)C2CCCC2)C1 (configuration not stated) [Glycopyrrolate]: n
CCOC(=O)[C@H](CCc1ccccc1)N[C@H]1CCc2ccccc2N(CC(=O)O)C1=O [Benazepril (hydrochloride)]: n
Nc1cccc2c1C(=O)N(C1CCC(=O)NC1=O)C2=O (configuration not stated) [Pomalidomide]: y

Does the molecule CC(=O)CC(c1ccccc1)c1c(O)c2ccccc2oc1=O (racemic) [(±)-Warfarin] have recorded difference in habituation to acoustic stimuli that is -0.2 or more? n

Is reported difference in habituation to acoustic stimuli greater than or equal to -0.2 here: CC(S)C(=O)NCC(=O)O (configuration not stated) [Tiopronin] n

Check the entry COc1cc2c(cc1OC)CC(=O)N(CCCN(C)C[C@H]1Cc3cc(OC)c(OC)cc31)CC2 [Ivabradine (hydrochloride)] : does difference in habituation to acoustic stimuli equal or exceed -0.2? n

Check if difference in habituation to acoustic stimuli >= -0.2 (inclusive). Item: CN(Cc1ccc(C(C)(C)C)cc1)Cc1cccc2ccccc12 [Butenafine (hydrochloride)] y

API: above_or_equal(metric=difference in habituation to acoustic stimuli, cutoff=-0.2) for item CC1(C)O[C@@H]2C[C@H]3[C@@H]4CCC5=CC(=O)CC[C@]5(C)[C@@]4(F)[C@@H](O)C[C@]3(C)[C@]2(C(=O)CCl)O1 [Halcinonide] y

Would you say NC(=O)NO [Hydroxyurea] shows difference in habituation to acoustic stimuli at minimum -0.2? y

Is the recorded value of difference in habituation to acoustic stimuli equal to or greater than -0.2 for this molecule? OC[C@H]1O[C@@H](c2ccc(Cl)c(Cc3ccc(O[C@H]4CCOC4)cc3)c2)[C@H](O)[C@@H](O)[C@@H]1O [Empagliflozin] n

Test whether the molecule O=C1NC(=O)C(c2ccccc2)(c2ccccc2)N1 [Phenytoin] records difference in habituation to acoustic stimuli of -0.2 or higher. y

Hi team, for COc1nc(N)nc2c1ncn2[C@@H]1O[C@H](CO)[C@@H](O)[C@@H]1O [Nelarabine] , is the recorded difference in habituation to acoustic stimuli at or above -0.2? y

Test whether the molecule O=C(O)CSc1nnc(Br)n1-c1ccc(C2CC2)c2ccccc12 [Lesinurad] records difference in habituation to acoustic stimuli of -0.2 or higher. y

Check if difference in habituation to acoustic stimuli >= -0.2 (inclusive). Item: CNC(=O)c1cc(Oc2ccc(NC(=O)Nc3ccc(Cl)c(C(F)(F)F)c3)cc2)ccn1 [Sorafenib] n

Would you say CN(CCOc1ccc(NS(C)(=O)=O)cc1)CCc1ccc(NS(C)(=O)=O)cc1 [Dofetilide] shows difference in habituation to acoustic stimuli at minimum -0.2? y
